- Target Of Assay: A2 receptor (Rattus norvegicus, UniProt P30543)
- Construct: corpus striatun (A2 receptor); from tissue; host or cells: rat corpus striatum membranes
- Sequence (P30543 whole entry): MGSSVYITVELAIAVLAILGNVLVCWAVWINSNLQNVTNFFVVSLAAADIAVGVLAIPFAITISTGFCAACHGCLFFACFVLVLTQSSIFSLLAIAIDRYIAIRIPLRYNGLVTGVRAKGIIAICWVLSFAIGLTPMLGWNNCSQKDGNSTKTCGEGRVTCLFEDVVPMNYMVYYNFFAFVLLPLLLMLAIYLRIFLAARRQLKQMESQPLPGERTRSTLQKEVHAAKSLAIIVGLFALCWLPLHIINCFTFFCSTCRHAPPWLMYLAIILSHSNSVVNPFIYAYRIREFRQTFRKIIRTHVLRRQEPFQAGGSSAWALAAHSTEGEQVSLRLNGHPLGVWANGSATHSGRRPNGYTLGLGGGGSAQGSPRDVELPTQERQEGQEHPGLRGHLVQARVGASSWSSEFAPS
- Procedure Text: A2 receptor antagonism (inhibition of 3H-NECA binding, rat corpus striatum membranes)
- Settings: in presence of 50 nM cyclopentyladenosine, read-out: A2 receptor (Ki, μM), binding-inhibition constant
Metric: Ki (µM)

>>> numeric_value("CCCn1c(=O)c2c3n(nc2n(Cc2ccccc2Cl)c1=O)CCN3 [compound 4]")
6.5
>>> numeric_value("CCCn1c(=O)c2c(nn3cc(-c4ccccc4)[nH]c23)n(Cc2ccccc2)c1=O [compound 15]")
0.28
>>> numeric_value("CCCn1c(=O)[nH]c2nn3cc[nH]c3c2c1=O [compound 30]")
0.42
>>> numeric_value("CCCn1c(=O)c2c(nn3cc[nH]c23)n(CCCc2ccccc2)c1=O [compound 14]")
2.5

(1) CCCn1c(=O)c2c(nn3cc(-c4ccc(OC)cc4)[nH]c23)n(Cc2ccccc2)c1=O [compound 22]
(2) CCCn1c(=O)c2c3n(nc2n(Cc2ccc(Cl)cc2)c1=O)CCN3 [compound 2]
(3) CCCCn1c(=O)n(Cc2ccccc2)c(=O)c2c3n(nc21)CCN3 [compound 5]
(4) CCCn1c(=O)c2c(nn3cc[nH]c23)n(Cc2ccccc2Cl)c1=O [compound 11]
Ordering: ascending Ki. // respond by listing labels in the order requested
1, 4, 2, 3
(1: 0.21 µM, 4: 1 µM, 2: 2.9 µM, 3: 4.5 µM)

Cited source for all entries: patent US5032594A
